The reported numbers originate from PubChem BioAssay AID463203.

target-or-test-system: UniProtKB P49840
test: concentration-response blocking of human GSK3A – biochemical, luminescence, cell-free homogeneous, retest, dose response (AID 463203)
test-parameters: GSK-3 alpha enzyme, ADP-Glo luminescence, 60 min
Calls of active or inactive are those of the source.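 The calls were made as follows: active = more than half of replicate measurements showing over 20% loss of kinase signal relative to plate controls; inconclusive = some but at most half of replicates over 20% loss; inactive = no replicate over 20% signal loss.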
Outcomes: true (1) = active, false (0) = inactive

• CCc1ccc(C2CC(c3ccc(Cl)cc3)n3nc(N)nc3N2)cc1 (stereo unspecified) = false (0)
• CCOC(=O)CCc1c(C)c2ccc(O)cc2oc1=O = false (0)
• Cc1ccc(S(=O)(=O)N(CC(O)CN2CCCC2)c2ccccc2)cc1 (stereo unspecified) = false (0)
• O=C(O)COc1ccc2c(c1)O/C(=C\c1cccs1)C2=O = true (1)
• CCn1c(SCC(=O)N/N=C/C=C\c2ccco2)nc2ccccc21 = false (0)
• Nc1nonc1-n1nnc(C(=O)N/N=C\c2cccc(Cl)c2)c1CN1CCOCC1 = true (1)
• CCC(=NCc1cccnc1)c1c(O)n(C2CCCCC2)c(=O)[nH]c1=O = false (0)
• C[C@@H](NC(=O)c1[nH]cnc1C(=O)Nc1ccon1)c1ccccc1 = true (1)
• CC[n+]1c(/C=C/N(C)c2ccccc2)n(-c2ccccc2)c2ccc(-c3nc4ccccc4s3)cc21 = false (0)
• CC(=O)C1C(c2ccccc2)c2c(n[nH]c2C)CC1(C)O (stereo unspecified) = false (0)
• Nc1nc(N)nc(-c2cc(O)ccc2O)n1 = true (1)

---

target-or-test-system: Glycogen synthase kinase-3 alpha (Homo sapiens) (UniProt P49840)
Sequence (P49840 whole entry, looked up): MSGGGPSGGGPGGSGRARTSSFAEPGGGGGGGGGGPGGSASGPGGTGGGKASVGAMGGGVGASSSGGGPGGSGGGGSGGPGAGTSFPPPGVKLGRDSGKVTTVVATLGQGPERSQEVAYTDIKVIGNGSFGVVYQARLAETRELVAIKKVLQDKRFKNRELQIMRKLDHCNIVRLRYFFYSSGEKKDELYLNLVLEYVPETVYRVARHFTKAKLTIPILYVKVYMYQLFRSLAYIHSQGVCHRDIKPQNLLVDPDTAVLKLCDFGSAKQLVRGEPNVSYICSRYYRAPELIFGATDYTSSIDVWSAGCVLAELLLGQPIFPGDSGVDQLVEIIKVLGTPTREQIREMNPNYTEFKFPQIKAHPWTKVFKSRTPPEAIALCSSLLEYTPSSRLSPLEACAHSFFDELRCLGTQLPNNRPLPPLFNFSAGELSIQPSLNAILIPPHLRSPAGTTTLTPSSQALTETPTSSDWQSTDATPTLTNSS
test: concentration-response blocking of human GSK3A – biochemical, luminescence, cell-free homogeneous, retest, dose response (AID 463203)
test-parameters: GSK-3 alpha enzyme, ADP-Glo luminescence, 60 min
Activity calls are given as the source filed them.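 How the source made its calls: active means more than half of replicate measurements showing over 20% loss of kinase signal relative to plate controls; inconclusive means some but at most half of replicates over 20% loss; inactive means no replicate over 20% signal loss.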
Outcomes: TRUE for active, FALSE for inactive

- NS(=O)(=O)c1cccc(NC(=O)CSc2nnc(-c3ccccc3)o2)c1: FALSE
- O=c1[nH]c(=S)n(CCC2=CCCCC2)c(O)c1C=NCCCn1ccnc1: TRUE
- CCOc1ccc(C(=O)c2cnc3ccccc3c2N2CCN(CC)CC2)cc1: FALSE
- COc1cc(CN2CCN(Cc3ccc([N+](=O)[O-])cc3)CC2)c([N+](=O)[O-])cc1OC: FALSE
- Cc1noc(C)c1COc1ccc(C(=O)OCC(=O)Nc2c(C)n(C)n(-c3ccccc3)c2=O)cc1: FALSE
- Cn1cc(C(=O)c2cccc(Cl)c2)cc1/C=N\O: TRUE
- COCCCNc1nc2nonc2nc1NCCSC: FALSE
- Oc1ccc(-c2nnc(-c3ccccc3)c(-c3ccccc3)n2)cc1: FALSE
- Cc1ccc(C(=O)N/C(=C\c2ccc(-c3ccc(Cl)cc3)o2)C(=O)NCCCN(C)C)cc1: FALSE
- COc1ccc(CNC(=O)c2cc(COc3c(F)cccc3F)on2)cc1OC: FALSE

---

target-or-test-system: Glycogen synthase kinase-3 alpha (Homo sapiens)
test: concentration-response blocking of human GSK3A – biochemical, luminescence, cell-free homogeneous, retest, dose response (AID 463203)
test-parameters: GSK-3 alpha enzyme, ADP-Glo luminescence, 60 min
Activity calls are given as the source filed them.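 The calls were made as follows: active = more than half of replicate measurements showing over 20% loss of kinase signal relative to plate controls; inconclusive = some but at most half of replicates over 20% loss; inactive = no replicate over 20% signal loss.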
Outcomes: active, inactive

* CCOC(=O)C1CCCN(Cc2sccc2C)C1 (configuration not stated) | inactive
* COc1ccc(-n2c(C)nc(N)c2C(=O)c2ccccc2)cc1 | inactive
* COc1ccc(-c2csc3ncnc(NCCCO)c23)cc1 | active
* COc1ccc(-c2cc(C(F)(F)F)nc(SCC(=O)NCc3cccs3)n2)cc1 | inactive
* CC(C)CC(=O)NC(=S)Nc1sc2c(c1C(N)=O)CCC2 | inactive
* O=C(NC1CCCC1)c1cccc(NC(=O)c2ccco2)c1 | inactive
* N#CCCn1cc(/C=N/O)c(-c2ccc(Cl)cc2)n1 | active
* COc1ccc(-c2cc(C(=O)N3CCN(c4ccccc4)CC3)no2)cc1 | inactive
* O=C(C[n+]1ccccc1)c1ccc(Cl)cc1 | inactive
* O=C(c1ccco1)N(Cc1cccc([N+](=O)[O-])c1)c1ccc(Br)cc1 | inactive
* O=C(CCN1CCOCC1)Nc1cccc(Br)c1 | inactive
* CC1(C)OC2OC(COC(=O)c3ccccc3)C3OC(C)(C)OC3C2O1 (configuration not stated) | inactive
